# experimentalTarget: AKT1 E17K (Homo sapiens (Human), UniProt P31749, E17K)
# Sequence (P31749 whole entry E17K): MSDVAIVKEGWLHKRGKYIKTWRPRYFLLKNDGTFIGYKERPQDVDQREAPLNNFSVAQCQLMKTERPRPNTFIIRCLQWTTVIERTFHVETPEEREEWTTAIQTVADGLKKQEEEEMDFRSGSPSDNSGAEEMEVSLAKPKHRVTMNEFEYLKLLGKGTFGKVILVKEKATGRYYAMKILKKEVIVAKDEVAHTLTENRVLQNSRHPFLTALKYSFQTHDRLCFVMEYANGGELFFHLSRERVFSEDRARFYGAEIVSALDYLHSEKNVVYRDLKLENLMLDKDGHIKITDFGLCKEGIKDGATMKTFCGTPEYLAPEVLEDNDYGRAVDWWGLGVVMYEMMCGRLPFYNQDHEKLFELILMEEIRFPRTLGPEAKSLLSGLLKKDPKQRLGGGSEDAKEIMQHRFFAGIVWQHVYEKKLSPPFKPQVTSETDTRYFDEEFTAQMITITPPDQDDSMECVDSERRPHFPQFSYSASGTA
# procedureDetails: Live cell target engagement (NanoBRET) in HEK293 cells
# Type: cell-based
readoutKind: AKT1 E17K IC50: Selectivity vs AKT2

molecule	readoutKind	readoutValue
CN(C(=O)CCc1ccc(C=O)c(O)c1)c1ccc(-n2c(-c3cccnc3N)nc3ccc(-c4ccccc4)nc32)cc1	AKT1 E17K IC50: Selectivity vs AKT2	13
Nc1ncccc1-c1nc2ccc(-c3ccccc3)nc2n1-c1ccc(CNCCCc2ccc(O)c(C=O)c2)cc1	AKT1 E17K IC50: Selectivity vs AKT2	2.5
CC(=O)Nc1cccc(-c2ccc3nc(-c4cccnc4N)n(-c4ccc(CNC(=O)Cc5ccc(C=O)c(O)c5)cc4)c3n2)c1	AKT1 E17K IC50: Selectivity vs AKT2	19
Nc1ncccc1-c1nc2ccc(-n3cccn3)nc2n1-c1ccc(CNC(=O)Cc2ccc(C=O)c(O)c2)cc1	AKT1 E17K IC50: Selectivity vs AKT2	140
COc1c(CCNCc2ccc(-n3c(-c4cccnc4N)nc4ccc(-c5ccccc5)nc43)cc2)ccc(C=O)c1O	AKT1 E17K IC50: Selectivity vs AKT2	4.7

P: Nc1ncccc1-c1nc2ccc(N3CCOCC3)nc2n1-c1ccc(CNC(=O)Cc2ccc(C=O)c(O)c2)cc1
Q: Nc1ncccc1-c1nc2ccc(-c3ccccc3)nc2n1-c1ccc(C2(NC(=O)Cc3ccc(C=O)c(O)c3F)CC2)cc1
R: Nc1ncccc1-c1nc2cccnc2n1-c1ccc(CNCCc2ccc(C=O)c(C(F)F)c2)cc1
With regard to AKT1 E17K IC50: Selectivity vs AKT2, arrange the entries in ascending order, please. Labels, ranked as asked. R, Q, P
(R: 2.5, Q: 5.8, P: 1500)

1: CC(=O)Nc1cccc(-c2ccc3nc(-c4cccnc4N)n(-c4ccc(CNCCc5ccc(C=O)c(O)c5F)cc4)c3n2)c1
2: CC(NC(=O)Cc1ccc(O)c(C=O)c1)c1ccc(-n2c(-c3cccnc3N)nc3ccc(-c4ccccc4)nc32)cc1 (stereo not drawn)
Could you tell me which of 1 and 2 has the lower AKT1 E17K IC50: Selectivity vs AKT2 reading? Answer by stating the label of the chosen item. 1
(1: 2, 2: 4.9)

I: CC(=O)Nc1c(C=O)ccc(CCNCc2ccc(-n3c(-c4cccnc4N)nc4cccnc43)cc2)c1F
II: Nc1ncccc1-c1nc2ccc(N3CCOCC3)nc2n1-c1ccc(C2(NC(=O)Cc3ccc(C=O)c(O)c3F)CC2)cc1
Of the pair I and II , name the member with the lesser recorded AKT1 E17K IC50: Selectivity vs AKT2. State the label of the item chosen. I

P: CC(NCCc1ccc(C=O)c(O)c1)c1ccc(-n2c(-c3cccnc3N)nc3ccc(-c4ccccc4)nc32)cc1 (stereo not drawn)
Q: Nc1ncccc1-c1nc2ccc(N3CCOCC3)nc2n1-c1ccc(CNC(=O)c2ccc(O)c(C=O)c2)cc1
R: Nc1ncccc1-c1nc2ccc(-c3ccccc3)nc2n1-c1ccc(C(=O)NCC#Cc2ccc(C=O)c(O)c2)cc1
Sequence the entries by AKT1 E17K IC50: Selectivity vs AKT2, beginning with the highest number. Give the labels in the order requested. Q, P, R

a: Nc1ncccc1-c1nc2ccc(-c3ccccc3)nc2n1-c1ccc(C(CO)NC(=O)Cc2ccc(C=O)c(O)c2F)cc1 (stereo not drawn)
b: CC(NC(=O)Cc1ccc(C=O)c(O)c1)c1ccc(-n2c(-c3cccnc3N)nc3ccc(-c4ccccc4)nc32)cc1 (stereo not drawn)
// which entry has the larger AKT1 E17K IC50: Selectivity vs AKT2 value, a or b ? // caller expects the label of the chosen entry b

I: Nc1ncccc1-c1nc2ccc(-c3ccccc3)nc2n1-c1ccc(C(=O)NCCc2ccc(C=O)c(O)c2)cn1
II: Nc1ncccc1-c1nc2cccnc2n1-c1ccc(CNC(=O)Cc2ccc(C=O)c(NC(=O)C3CC3)c2)cc1
III: CC(=O)N(C)C1CCN(c2cccc(-c3ccc4nc(-c5cccnc5N)n(-c5ccc(CNCCc6ccc(C=O)c(O)c6)cc5)c4n3)c2)CC1
Rank by AKT1 E17K IC50: Selectivity vs AKT2 (largest to smallest). Answer format: the labels, ordered as requested. II, I, III
(II: 120, I: 1, III: 0.6)

1: Nc1ncccc1-c1nc2ccc(-c3ccccc3)nc2n1-c1ccc(N2CC(NCc3ccc(C=O)c(O)c3)C2)cc1
2: Nc1ncccc1-c1nc2ccc(-c3cccc(N4CCC(N5CCCC5=O)CC4)c3F)nc2n1-c1ccc(CNC(=O)Cc2ccc(C=O)c(O)c2)cc1
3: Nc1ncccc1-c1nc2ccc(-c3ccccc3)nc2n1-c1ccc(CNCCCc2ccc(C=O)c(O)c2)cc1
List these items ordered by AKT1 E17K IC50: Selectivity vs AKT2, big to small. Reply with the item labels sorted in the order that was asked for. 1, 3, 2

A: CC(C)(C)c1cc(C(=O)NCc2ccc(-n3c(-c4cccnc4N)nc4ccc(-c5ccccc5)nc43)cc2)cc(C=O)c1O
B: Nc1ncccc1-c1nc2ccc(-c3ccccc3)nc2n1-c1ccc(CNC(=O)c2cc(Cl)c(O)c(C=O)c2)cc1
Kindly identify the item with the lower AKT1 E17K IC50: Selectivity vs AKT2 figure among these two: A and B Reply with the label of the item you choose. A
